B1: Caulobacter ParB omega fusion; a variant is named by its letters at X, in order, B8GW30 (parent)
chain: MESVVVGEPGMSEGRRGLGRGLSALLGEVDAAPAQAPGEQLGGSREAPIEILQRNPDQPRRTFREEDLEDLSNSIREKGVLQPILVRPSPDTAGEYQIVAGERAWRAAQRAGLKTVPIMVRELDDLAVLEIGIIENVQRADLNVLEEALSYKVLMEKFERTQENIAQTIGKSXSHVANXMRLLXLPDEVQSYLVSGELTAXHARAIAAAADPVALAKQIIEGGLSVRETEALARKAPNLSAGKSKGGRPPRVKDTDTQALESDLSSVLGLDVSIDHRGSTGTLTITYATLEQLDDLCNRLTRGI

- Variants of: B1
- MEASUREMENT_PROTOCOL: one-hybrid fitness for binding parS DNA (scaled: cognate 1, non-cognate 0); higher = stronger binding
- TEST_CONTEXT: with parS DNA site
In all, about 81,000 sequences were measured (“one-hybrid fitness for binding parS DNA”: median about -0.17, highest 2% from about 0.51 on). The sample as a whole holds a higher share of the highest values than the screen did.

{"CHANGE": "RAFT", "one-hybrid fitness for binding parS DNA": 0.847}
{"CHANGE": "PYAK", "one-hybrid fitness for binding parS DNA": "≤ 0.2"}
{"CHANGE": "HASR", "one-hybrid fitness for binding parS DNA": "≤ 0.2"}
{"CHANGE": "RAAK", "one-hybrid fitness for binding parS DNA": "≤ 0.2"}
{"CHANGE": "DVVM", "one-hybrid fitness for binding parS DNA": "≤ 0.2"}
{"CHANGE": "RNNK", "one-hybrid fitness for binding parS DNA": "≤ 0.2"}
{"CHANGE": "LLFA", "one-hybrid fitness for binding parS DNA": "≤ 0.2"}
{"CHANGE": "RNDD", "one-hybrid fitness for binding parS DNA": "≤ 0.2"}
{"CHANGE": "DVLS", "one-hybrid fitness for binding parS DNA": "≤ 0.2"}
{"CHANGE": "KMYG", "one-hybrid fitness for binding parS DNA": "≤ 0.2"}
{"CHANGE": "QCIG", "one-hybrid fitness for binding parS DNA": "≤ 0.2"}
{"CHANGE": "GPDK", "one-hybrid fitness for binding parS DNA": "≤ 0.2"}
{"CHANGE": "RTFN", "one-hybrid fitness for binding parS DNA": 0.436}
{"CHANGE": "RAFD", "one-hybrid fitness for binding parS DNA": "≤ 0.2"}
{"CHANGE": "RTAN", "one-hybrid fitness for binding parS DNA": 0.429}
{"CHANGE": "SILY", "one-hybrid fitness for binding parS DNA": "≤ 0.2"}
{"CHANGE": "GNDG", "one-hybrid fitness for binding parS DNA": "≤ 0.2"}
